assay: Pharmacokinetic assay in Wistar rats, oral; details: rat, in vivo, 30 mg/kg
Can you tell me half-life for the items I'm about to list?
Expressed in min, but write only the number.

Query string: May I ask what half-life has been recorded for CCn1nccc1C(=O)N[C@H](C(=O)Nc1ncc([C@@H](CN2CCC(OC)CC2)N2CC(F)(F)CCC2=O)s1)[C@H]1CC[C@H](C)CC1 ?
Result string: 144

Query string: May I ask what half-life has been recorded for [2H]C([2H])([2H])C([2H])([2H])n1nccc1C(=O)N[C@H](C(=O)Nc1ncc([C@@H](CN2CCC(C(F)(F)F)CC2)N2CC(F)(F)CCC2=O)s1)[C@H]1CC[C@H](C)CC1 ?
Result string: 558

Query string: May I ask what half-life has been recorded for [2H]C([2H])([2H])C([2H])([2H])n1nccc1C(=O)N[C@H](C(=O)Nc1ncc([C@@H](CN2CCC3(CC2)CC3(F)F)N2CC(F)(F)CCC2=O)s1)[C@H]1CC[C@H](C)CC1 ?
Result string: 564

Query string: May I ask what half-life has been recorded for C[C@H]1CC[C@H]([C@H](NC(=O)C2(F)CC2)C(=O)Nc2ncc([C@@H](CN3CCC(C(F)(F)F)CC3)N3CC(F)(F)CNC3=O)s2)CC1 ?
Result string: 270

Query string: May I ask what half-life has been recorded for [2H]C([2H])([2H])C([2H])([2H])n1nccc1C(=O)N[C@H](C(=O)Nc1ncc([C@@H](CN2CCO[C@@H](C)C2)N2CC(F)(F)CCC2=O)s1)[C@H]1CC[C@H](C)CC1 ?
Result string: 198

* * *

Molecular target: human IL-17RA and IL-17A proteins (Homo sapiens, UniProt Q16552)
Sequence (Q16552 24-155): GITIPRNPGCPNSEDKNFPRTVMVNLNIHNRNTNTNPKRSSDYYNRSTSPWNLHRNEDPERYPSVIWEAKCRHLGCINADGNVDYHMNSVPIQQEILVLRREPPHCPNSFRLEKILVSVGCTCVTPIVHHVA
The following ranges of IC50 define the classes used here: lower bin (below 4 nM), middle bin (4 nM to below 6 nM), upper bin (6 nM or more)

Query string: Could you place C[C@@H]1CN(C[C@H](c2cnc(NC(=O)[C@@H](NC(=O)C(F)(F)C3CC3)[C@H]3CC[C@H](C)CC3)s2)N2CC(F)(F)CNC2=O)C[C@H](C)O1 in its proper category? Many thanks.
Result string: middle bin

Query string: Could you place CCc1nonc1C(=O)N[C@H](C(=O)Nc1ncc([C@@H](C2CCOCC2)n2cc(Cl)ccc2=O)s1)[C@H]1CC[C@H](C)CC1 in its proper category? Many thanks.
Result string: upper bin

Query string: Could you place CCc1nonc1C(=O)N[C@H](C(=O)Nc1ncc([C@@H](COC)N2CC(F)(F)CNC2=O)s1)[C@H]1CC[C@H](C)CC1 in its proper category? Many thanks.
Result string: lower bin

Query string: Could you place [2H]C1([2H])NC(=O)N([C@H](COC)c2cnc(NC(=O)[C@@H](NC(=O)OC3CC3)[C@H]3CC[C@H](C)CC3)s2)C([2H])([2H])C1(F)F in its proper category? Many thanks.
Result string: middle bin

Query string: Could you place [2H]C1([2H])NC(=O)N([C@H](COC)c2cnc(NC(=O)[C@@H](NC(=O)C3(F)CC3)[C@H]3CC[C@H](C)CC3)s2)C([2H])([2H])C1(F)F in its proper category? Many thanks.
Result string: middle bin

Query string: Could you place COCC(c1cnc(NC(=O)C(NC(=O)OC2CC2)C2CCC(C)CC2)s1)N1CC(C(F)(F)F)NC1=O (stereo not drawn) in its proper category? Many thanks.
Result string: upper bin

Query string: Could you place C[C@H]1CC[C@H]([C@H](NC(=O)C2(F)CC2)C(=O)Nc2ncc([C@@H](CN3CCO[C@@H](CF)C3)N3CC(F)(F)CNC3=O)s2)CC1 in its proper category? Many thanks.
Result string: upper bin

Query string: Could you place C[C@H]1CN(C[C@H](c2cnc(NC(=O)[C@@H](NC(=O)C3(F)CC3)[C@H]3CC[C@H](C)CC3)s2)N2CC(F)(F)CNC2=O)[C@@H](C)CO1 in its proper category? Many thanks.
Result string: lower bin

* * *

Can you tell me Tmax for the items I'm about to list?
test: Pharmacokinetic assay in Wistar rats, oral; settings: rat, in vivo, 30 mg/kg
Expressed in h, but write only the number.

Query string: May I ask what Tmax has been recorded for [2H]C([2H])([2H])C([2H])([2H])n1nccc1C(=O)N[C@H](C(=O)Nc1ncc([C@@H](CN2CCC(CF)CC2)N2CC(F)(F)CCC2=O)s1)[C@H]1CC[C@H](C)CC1 ?
Result string: 4

Query string: May I ask what Tmax has been recorded for [2H]C([2H])([2H])C([2H])([2H])n1nccc1C(=O)N[C@H](C(=O)Nc1ncc([C@@H](CN2CCO[C@@H](C)C2)N2CC(F)(F)CCC2=O)s1)[C@H]1CC[C@H](C)CC1 ?
Result string: 4

Query string: May I ask what Tmax has been recorded for [2H]C([2H])([2H])C([2H])([2H])n1nccc1C(=O)N[C@H](C(=O)Nc1ncc([C@@H](CN2CCC(C(F)(F)F)CC2)N2CC(F)(F)CCC2=O)s1)[C@H]1CC[C@H](C)CC1 ?
Result string: 4

Query string: May I ask what Tmax has been recorded for [2H]C([2H])([2H])O[C@@H]1CCN(C[C@H](c2cnc(NC(=O)[C@@H](NC(=O)c3ccnn3C([2H])([2H])C([2H])([2H])[2H])[C@H]3CC[C@H](C)CC3)s2)N2CC(F)(F)CCC2=O)C[C@@H]1F ?
Result string: 4

Query string: May I ask what Tmax has been recorded for CCn1nccc1C(=O)N[C@H](C(=O)Nc1ncc([C@@H](CN2CCC(OC)CC2)N2CC(F)(F)CCC2=O)s1)[C@H]1CC[C@H](C)CC1 ?
Result string: 2

* * *

experiment: Pharmacokinetic assay in Wistar rats, oral; settings: rat, plasma, 30 mg/kg
Can you tell me Cmax for the items I'm about to list?

Query string: May I ask what Cmax has been recorded for C[C@H]1CC[C@H]([C@H](NC(=O)C2(F)CC2)C(=O)Nc2ncc([C@@H](CN3CCC(F)(F)CC3)N3CC(F)(F)CNC3=O)s2)CC1 ?
Result string: 1480 ng/mL

Query string: May I ask what Cmax has been recorded for [2H]C([2H])([2H])C([2H])([2H])n1nccc1C(=O)N[C@H](C(=O)Nc1ncc([C@@H](CN2C[C@H](C)O[C@@H](C)C2)N2CC(F)(F)CCC2=O)s1)[C@H]1CC[C@H](C)CC1 ?
Result string: 2170 ng/mL

Query string: May I ask what Cmax has been recorded for C[C@H]1COCCN1C[C@H](c1cnc(NC(=O)[C@@H](NC(=O)C2(F)CC2)[C@H]2CC[C@H](C)CC2)s1)N1CC(F)(F)CNC1=O ?
Result string: 1670 ng/mL

* * *

assay: Pharmacokinetic assay in Wistar rats, oral; conditions: rat, in vivo, 30 mg/kg
Each entry gets criterion not met if its AUC(0-t) stays under 20000 ng·h/mL, and criterion met if its AUC(0-t) is 20000 ng·h/mL or above.

Query string: hey, is AUC(0-t) for this one >= 20000 ng·h/mL? [2H]C([2H])([2H])C([2H])([2H])n1nccc1C(=O)NC(C(=O)Nc1ncc(C(COC)n2cc(Cl)ccc2=O)s1)C1CCC(C)CC1 (centres unmarked)
Result string: criterion not met

Query string: hey, is AUC(0-t) for this one >= 20000 ng·h/mL? [2H]C([2H])([2H])O[C@@H]1CCN(C[C@H](c2cnc(NC(=O)[C@@H](NC(=O)c3ccnn3C([2H])([2H])C([2H])([2H])[2H])[C@H]3CC[C@H](C)CC3)s2)N2CC(F)(F)CCC2=O)C[C@@H]1F
Result string: criterion not met

Query string: hey, is AUC(0-t) for this one >= 20000 ng·h/mL? [2H]C([2H])([2H])C([2H])([2H])n1nccc1C(=O)NC(C(=O)Nc1ncc(C(CN2CC(C)OCC2C)N2CC(F)(F)CCC2=O)s1)C1CCC(C)CC1 (centres unmarked)
Result string: criterion not met

Query string: hey, is AUC(0-t) for this one >= 20000 ng·h/mL? [2H]C([2H])([2H])C([2H])([2H])n1nccc1C(=O)N[C@H](C(=O)Nc1ncc([C@@H](CN2CCOC[C@@H]2C)N2CC(F)(F)CCC2=O)s1)[C@H]1CC[C@H](C)CC1
Result string: criterion met

* * *

assay: Pharmacokinetic assay in Wistar rats, oral; settings: rat, plasma, 30 mg/kg
Can you tell me AUC(0-t) for the items I'm about to list?
Expressed in ng·h/mL, but write only the number.

Query string: May I ask what AUC(0-t) has been recorded for C[C@H]1CC[C@H]([C@H](NC(=O)C2(F)CC2)C(=O)Nc2ncc([C@@H](CN3CCC(C(F)F)CC3)N3CC(F)(F)CNC3=O)s2)CC1 [Example 770] ?
Result string: 11600

Query string: May I ask what AUC(0-t) has been recorded for [2H]C1([2H])NC(=O)N([C@H](COC)c2cnc(NC(=O)[C@@H](NC(=O)OC3CC3)[C@H]3CC[C@H](C)CC3)s2)C([2H])([2H])C1(F)F [Example 559] ?
Result string: 12700

Query string: May I ask what AUC(0-t) has been recorded for [2H]C([2H])([2H])C([2H])([2H])n1nccc1C(=O)N[C@H](C(=O)Nc1ncc([C@@H](CN2C[C@@H](C)O[C@H](C)C2)N2CC(F)(F)CCC2=O)s1)[C@H]1CC[C@H](C)CC1 [Example 857] ?
Result string: 15900

Query string: May I ask what AUC(0-t) has been recorded for C[C@H]1COCCN1C[C@H](c1cnc(NC(=O)[C@@H](NC(=O)C2(F)CC2)[C@H]2CC[C@H](C)CC2)s1)N1CC(F)(F)CNC1=O [Example 1014] ?
Result string: 12800

Query string: May I ask what AUC(0-t) has been recorded for CC1CCC(C(NC(=O)C2(F)CC2)C(=O)Nc2ncc(C(CN3C(C)COCC3C)N3CC(F)(F)CNC3=O)s2)CC1 (centres unmarked) [Example 739] ?
Result string: 10300

Query string: May I ask what AUC(0-t) has been recorded for C[C@@H]1CN(C[C@H](c2cnc(NC(=O)[C@@H](NC(=O)C3(F)CC3)[C@H]3CC[C@H](C)CC3)s2)N2CC(F)(F)CNC2=O)[C@H](C)CO1 [Example 736] ?
Result string: 10800

Query string: May I ask what AUC(0-t) has been recorded for [2H]C([2H])([2H])C([2H])([2H])n1nccc1C(=O)N[C@H](C(=O)Nc1ncc([C@@H](CN2CCOCC2)N2CC(F)(F)CCC2=O)s1)[C@H]1CC[C@H](C)CC1 [Example 624] ?
Result string: 11000

Query string: May I ask what AUC(0-t) has been recorded for [2H]C([2H])([2H])C([2H])([2H])n1nccc1C(=O)N[C@H](C(=O)Nc1ncc([C@@H](CN2C[C@@H](C)O[C@@H](C)C2)N2CC(F)(F)CCC2=O)s1)[C@H]1CC[C@H](C)CC1 [Example 849] ?
Result string: 15500

Query string: May I ask what AUC(0-t) has been recorded for C[C@H]1CC[C@H]([C@H](NC(=O)C2(F)CC2)C(=O)Nc2ncc([C@@H](CN3CCC(F)(F)CC3)N3CC(F)(F)CNC3=O)s2)CC1 [Example 763] ?
Result string: 15900

Query string: May I ask what AUC(0-t) has been recorded for [2H]C([2H])([2H])C([2H])([2H])n1nccc1C(=O)N[C@H](C(=O)Nc1ncc([C@@H](CN2CCO[C@H](C)C2)N2CC(F)(F)CCC2=O)s1)[C@H]1CC[C@H](C)CC1 [Example 627] ?
Result string: 22100

Query string: May I ask what AUC(0-t) has been recorded for [2H]C([2H])([2H])OC1(C)CCN(C[C@H](c2cnc(NC(=O)[C@@H](NC(=O)C3(F)CC3)[C@H]3CC[C@H](C)CC3)s2)N2CC(F)(F)CNC2=O)CC1 [Example 787] ?
Result string: 18800
